# TARGET_OF_ASSAY: HCV genotype 1b (BK) NS3 modified enzyme with a R155K mutation (Hepatitis C virus genotype 1b, UniProt P26663, R1181K)
# Construct: HCV genotype 1b (BK) NS3 modified enzyme
# ASSAY_COMMENT: HCV NS3 protease time-resolved fluorescence (TRF) assay, genotype 1b R155K
# Assay type: biochemical
# TEST_PARAMETERS: Ki 1b R155K, genotype 1b (BK) NS3 R155K; single value
# Description: The HCV NS3 protease inhibitory activity of the present compounds may be tested using assays known in the art. One such assay is HCV NS3 protease time-resolved fluorescence (TRF) assay as described below and in International Patent Application Publication No. WO2006/102087. […] Product fluorescence is detected using either a VICTOR V2 or FUSION fluorophotometer (Perkin Elmer Life and Analytical Sciences) with excitation at 340 nm and emission at 615 nm with a 400 μs delay. […]
pKi: −log10 of the molar value.
Recorded pKi, one value per entry.
OBSERVABLE: pKi

[[record]]
compound = "C=CC1C[C@]1(NC(=O)[C@@H]1C[C@@H]2CN1C(=O)[C@H](C(C)(C)C)NC(=O)O[C@@H]1CCC[C@H]1CCCCCc1c(nc3ccccc3c1OCCN1CCOCC1)O2)C(=O)NS(=O)(=O)C1(C(=C)C)CC1 (some centres unmarked)"
observed_result = 8.80

[[record]]
compound = "C=C[C@@H]1C[C@]1(NC(=O)[C@@H]1C[C@@H]2CN1C(=O)[C@H](C(C)(C)C)NC(=O)O[C@@H]1C[C@H]1CCCCCc1c(nc3ccccc3c1OCC1CCN(CCOC)CC1)O2)C(=O)NS(=O)(=O)C1(C)CC1"
observed_result = 9.96

[[record]]
compound = "C=C[C@@H]1C[C@]1(NC(=O)[C@@H]1C[C@@H]2CN1C(=O)[C@H](C(C)(C)C)NC(=O)O[C@@H]1CCC[C@H]1CCCCCc1c(nc3ccccc3c1O)O2)C(=O)NS(=O)(=O)C1(COC)CC1"
observed_result = 9.82

[[record]]
compound = "C=C[C@@H]1C[C@]1(NC(=O)[C@@H]1C[C@@H]2CN1C(=O)[C@H](C(C)(C)C)NC(=O)O[C@@H]1C[C@H]1CCCCCc1c(nc3c(OC)cccc3c1OCCCn1ccnc1)O2)C(=O)NS(=O)(=O)C1(C)CC1"
observed_result = 9.21

[[record]]
compound = "COc1c2c(nc3ccccc13)O[C@@H]1C[C@H]3C(=O)N[C@]4(C(=O)NS(=O)(=O)C5(C)CC5)C[C@H]4/C=C\\CCCCC[C@H](NC(=O)O[C@@H]4C[C@H]4CCC/C=C/2)C(=O)N3C1"
observed_result = 9.64

[[record]]
compound = "C=C[C@@H]1C[C@]1(NC(=O)[C@@H]1C[C@@H]2CN1C(=O)[C@H](C1CCCC1)NC(=O)O[C@@H]1CCC[C@H]1CC/C=C/Cc1c(nc3ccccc3c1OCCCn1cccc1)O2)C(=O)NS(=O)(=O)C1(C)CC1"
observed_result = 9.66

[[record]]
compound = "C=CC1C[C@]1(NC(=O)[C@@H]1C[C@@H]2CN1C(=O)[C@H](C(C)(C)C)NC(=O)O[C@@H]1CCC[C@H]1CCCCCc1c(nc3ccccc3c1OCCN1CCOCC1)O2)C(=O)NS(=O)(=O)C1(COCCOC)CC1 (some centres unmarked)"
observed_result = 9.25

[[record]]
compound = "C=C[C@@H]1C[C@]1(NC(=O)[C@@H]1C[C@@H]2CN1C(=O)[C@H](C1CCCC1)NC(=O)O[C@@H]1CCC[C@H]1CC/C=C/Cc1c(nc3ccccc3c1OCCCN)O2)C(=O)NS(=O)(=O)C1CC1"
observed_result = 10.03

[[record]]
compound = "C=CC1C[C@]1(NC(=O)[C@@H]1C[C@@H]2CN1C(=O)[C@H](C1CCCC1)NC(=O)O[C@@H]1CCC[C@H]1CC/C=C/Cc1c(nc3ccccc3c1OCCCN1CCN(C)CC1)O2)C(=O)NS(=O)(=O)C1CC1 (some centres unmarked)"
observed_result = 9.47

[[record]]
compound = "C=C[C@@H]1C[C@]1(NC(=O)[C@@H]1C[C@@H]2CN1C(=O)[C@H](C(C)(C)C)NC(=O)O[C@@H]1C[C@H]1CCCCCc1c(nc3ccccc3c1OCCCN(CCOC)CCOC)O2)C(=O)NS(=O)(=O)C1(C)CC1"
observed_result = 10.11

[[record]]
compound = "C=C[C@@H]1C[C@]1(NC(=O)[C@@H]1C[C@@H]2CN1C(=O)[C@H](C(C)(C)C)NC(=O)O[C@@H]1C[C@H]1CCCCCc1c(nc3ccccc3c1OCCCN(CC)CCc1nc3ccccc3[nH]1)O2)C(=O)NS(=O)(=O)C1(C)CC1"
observed_result = 10.00

[[record]]
compound = "C=C[C@@H]1C[C@]1(NC(=O)[C@@H]1C[C@@H]2CN1C(=O)[C@H](C(C)(C)C)NC(=O)O[C@@H]1C[C@H]1CCCCCc1c(nc3ccccc3c1OCCCCN1CCOCC1)O2)C(=O)NS(=O)(=O)C1(C)CC1"
observed_result = 9.92

[[record]]
compound = "C=C[C@@H]1C[C@]1(NC(=O)[C@@H]1C[C@@H]2CN1C(=O)[C@H](C(C)(C)C)NC(=O)O[C@@H]1C[C@H]1CCCCCc1c(nc3ccccc3c1OCCNC1CC1)O2)C(=O)NS(=O)(=O)C1(C)CC1"
observed_result = 9.85

[[record]]
compound = "C=C[C@@H]1C[C@]1(NC(=O)[C@@H]1C[C@@H]2CN1C(=O)[C@H](C(C)(C)C)NC(=O)O[C@@H]1C[C@H]1CCCCCc1c(nc3ccccc3c1OCC1CN(C)CCN1C)O2)C(=O)NS(=O)(=O)C1(C)CC1 (some centres unmarked)"
observed_result = 9.59

[[record]]
compound = "CC[C@@H]1C[C@]1(NC(=O)[C@@H]1C[C@@H]2CN1C(=O)[C@H](C1CCCC1)NC(=O)O[C@@H]1CCC[C@H]1CCCCCc1c(nc3ccccc3c1OC)O2)C(=O)NS(=O)(=O)C1CC1"
observed_result = 8.60

[[record]]
compound = "C=C[C@@H]1C[C@]1(NC(=O)[C@@H]1C[C@@H]2CN1C(=O)[C@H](C(C)(C)C)NC(=O)O[C@@H]1C[C@H]1CCCCCc1c(nc3cc(C(F)(F)F)ccc3c1OCCN1CCOCC1)O2)C(=O)NS(=O)(=O)C1(C)CC1"
observed_result = 9.29

[[record]]
compound = "C=C[C@@H]1C[C@]1(NC(=O)[C@@H]1C[C@@H]2CN1C(=O)[C@H](C(C)(C)C)NC(=O)O[C@@H]1C[C@H]1CCCCCc1c(nc3c(OC)cccc3c1OCCCN1CC3(COC3)C1)O2)C(=O)NS(=O)(=O)C1(C)CC1"
observed_result = 10.23

